Data credit: the supplement of paper PMC9694430

tested on: LOC_OS05G07850-cb002; experiment: thermal shift delta Tm vs DMSO control; higher = stronger stabilization (binding); settings: 12.5 µM; protein concentration 2 µM;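 also: purified Escherichia coli-expressed rice kinase domain construct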
assay.readout: thermal shift delta Tm (°C)
Provide the reading as a plain figure in °C.

| molecule | result.unit | measured.number |
| --- | --- | --- |
| O=C(O)c1ccc2c(c1)nc(Nc1cccc(Cl)c1)c1ccncc12 [Silmitasertib (CX-4945)] | °C | 8.41 |

# Cc1cc(N2CCOCC2)cc2[nH]c(-c3c(NC[C@@H](O)c4cccc(Cl)c4)cc[nH]c3=O)nc12 with LOC_OS05G07850-cb002: thermal shift delta Tm is 9.39

# C=CC(=O)Nc1cccc(Sc2nc(Nc3ccc(N4CCN(C)CC4)cc3)ncc2Cl)c1 with LOC_OS05G07850-cb002: thermal shift delta Tm is 11.5

# CO[C@H]1CC[C@H](N2C(=O)CNc3ncc(-c4ccc(C(C)(C)O)nc4)nc32)CC1 with LOC_OS05G07850-cb002: thermal shift delta Tm is 0.66
